# Tested System: tyrosinase from fungi
# Method: Tyrosinase assay (L-DOPA as substrate, optical density at 470 nm)
# Measurement Setup: tyrosinase from fungi (16U, Fluka), phosphate buffer pH 6.8, 10 min pre-incubation at 25° C., read-out: IC50 (concentration of the test compound at which 50% of the tyrosinase activity is inhibited)
Attribute Measured: IC50 (µM)

• CCCCCCc1ccc(O)cc1O = 0.5
• CCCCCCc1ccc(OC(=O)C2CCC(=O)N2)cc1O (stereo not drawn) = 19
• O=c1cc(CO)occ1O = 12
